The origin of these recorded values is patent US20070218460A1.

test system: hpn; test: Real-time quantitative PCR of PLsis marker gene expression; type: cell-based, human; conditions: HepG2 cells, 24 hr exposure, relative value, control group = 1.0, GAPDH internal standard, n=3
reported endpoint: expression variation rate hpn

Some solved entries appear below for comparison.
>>> readout_number("CN(C)CCC=C1c2ccccc2CCc2ccccc21 [amitriptyline]")
2.20
>>> readout_number("Clc1ccccc1CNCC1CCC(CNCc2ccccc2Cl)CC1 (stereo not drawn) [AY-9944]")
2.68
>>> readout_number("CN1CCN(C2=Nc3cc(Cl)ccc3Nc3ccccc32)CC1 [clozapine]")
2.35
>>> readout_number("CN(C)CCCN1c2ccccc2Sc2ccc(Cl)cc21 [chlorpromazine]")
1.70

(P) CN(C)CCCN1c2ccccc2CCc2ccc(Cl)cc21 [clomipramine]
(Q) CC1COc2c(N3CCN(C)CC3)c(F)cc3c(=O)c(C(=O)O)cn1c23 (stereo not drawn) [ofloxacin]
*Q* // compare: P vs Q , metric expression variation rate hpn, want the smaller Selection: enter the item's label.
*A* Q
(Q: 0.72, P: 2.39)

* * *

system: slc2a3; assay: Real-time quantitative PCR of PLsis marker gene expression; format: cell-based, human; conditions: HepG2 cells, 24 hr exposure, relative value, control group = 1.0, GAPDH internal standard, n=3
reported endpoint: expression variation rate slc2a3

Some solved entries appear below for comparison.
>>> readout_number("CC1COc2c(N3CCN(C)CC3)c(F)cc3c(=O)c(C(=O)O)cn1c23 (centres unmarked) [ofloxacin]")
0.94
>>> readout_number("CC(=O)Nc1ccc(O)cc1 [acetaminophen]")
1.50
>>> readout_number("C1CCC(C(CC2CCCCN2)C2CCCCC2)CC1 (centres unmarked) [perhexiline]")
0.22

(P) CN(C)CCC=C1c2ccccc2CCc2ccccc21 [amitriptyline]
(Q) Cc1cc(NS(=O)(=O)c2ccc(N)cc2)no1 [sulfamethoxazole]
*Q* Lab notebook, comparison: P versus Q , higher expression variation rate slc2a3 goes to which? Selection: enter the item's label.
*A* Q

(1) CC(C)N(CCC(C(N)=O)(c1ccccc1)c1ccccn1)C(C)C (centres unmarked) [disopyramide]
(2) CN(C)CCCN1c2ccccc2CCc2ccc(Cl)cc21 [clomipramine]
*Q* Lab notebook, comparison: 1 versus 2 , higher expression variation rate slc2a3 goes to which? Selection: enter the item's label.
*A* 1

* * *

system: nr0b2; experiment: Real-time quantitative PCR of PLsis marker gene expression; type: cell-based, human; conditions: HepG2 cells, 24 hr exposure, relative value, control group = 1.0, GAPDH internal standard, n=3
reported endpoint: expression variation rate nr0b2

Some solved entries appear below for comparison.
>>> readout_number("C1CCC(C(CC2CCCCN2)C2CCCCC2)CC1 (centres unmarked)")
2.09
>>> readout_number("Clc1ccccc1CNCC1CCC(CNCc2ccccc2Cl)CC1 (centres unmarked)")
2.71
>>> readout_number("CC/C(=C(\\c1ccccc1)c1ccc(OCCN(C)C)cc1)c1ccccc1")
2.56

(P) CN1CCN(C2=Nc3cc(Cl)ccc3Nc3ccccc32)CC1
(Q) CC[C@H]1OC(=O)[C@H](C)[C@@H](O[C@H]2C[C@@](C)(OC)[C@@H](O)[C@H](C)O2)[C@H](C)[C@@H](O[C@@H]2O[C@H](C)C[C@H](N(C)C)[C@H]2O)[C@](C)(O)C[C@@H](C)C(=O)[C@H](C)[C@@H](O)[C@]1(C)O
*Q* Lab notebook, comparison: P versus Q , higher expression variation rate nr0b2 goes to which? Selection: enter the item's label.
*A* P
